Lab note: compare logP with 2, writing t if less and f if equal or more.

INSERT INTO assay_data (molecule, class_name) VALUES
  ('OCCN(CCO)CCCc1ccc(CSc2ccccc2)cc1', 'f'),
  ('CCOC(=O)C1(c2ccccc2)CCN(CCC(O)c2ccccc2)CC1 (stereo unspecified)', 'f'),
  ('CCC(C(=O)OCc1ccc(Cl)cc1)C(CO)Cc1cncn1C (stereo unspecified)', 'f');

I'd appreciate it if you could check whether CC(C)(C)NCC(O)COc1cccc2c1C[C@H](O)[C@H](O)C2 (stereo partly specified) has logP smaller than 2.
t

I'd appreciate it if you could check whether CC(=O)NC(CO)C(N)=O (stereo unspecified) has logP smaller than 2.
t

I'd appreciate it if you could check whether CCc1ccc(OCC(OC(=O)n2ccnc2)C(C)(C)C)cc1 (stereo unspecified) has logP smaller than 2.
f

I'd appreciate it if you could check whether O=C(O)COc1ccc(Oc2ccc(Cl)cc2Cl)cc1 has logP smaller than 2.
f

I'd appreciate it if you could check whether CNc1nc(C)c(C(=O)CCN2CCCCC2)s1 has logP smaller than 2.
f

I'd appreciate it if you could check whether CC(=O)Nc1ccn(C2OC(CO)C(O)C2O)c(=O)n1 (stereo unspecified) has logP smaller than 2.
t

I'd appreciate it if you could check whether COc1c(O)c(Cl)c(Cl)c(Cl)c1Cl has logP smaller than 2.
f

I'd appreciate it if you could check whether CC(C)Oc1ccc(OCC(OC(=O)n2ccnc2)C(C)(C)C)cc1 (stereo unspecified) has logP smaller than 2.
f
